These measurements were taken from patent US10428140B2.

Biological target: T1, human EphB2 (Homo sapiens, UniProt P29323)
T1 construct: a protein of the extracellular region of each human Eph receptor fused with the SEAP protein and the His tag; made in house; host or cells: Expi293F cells
T1 sequence (P29323 19-543 limits assumed): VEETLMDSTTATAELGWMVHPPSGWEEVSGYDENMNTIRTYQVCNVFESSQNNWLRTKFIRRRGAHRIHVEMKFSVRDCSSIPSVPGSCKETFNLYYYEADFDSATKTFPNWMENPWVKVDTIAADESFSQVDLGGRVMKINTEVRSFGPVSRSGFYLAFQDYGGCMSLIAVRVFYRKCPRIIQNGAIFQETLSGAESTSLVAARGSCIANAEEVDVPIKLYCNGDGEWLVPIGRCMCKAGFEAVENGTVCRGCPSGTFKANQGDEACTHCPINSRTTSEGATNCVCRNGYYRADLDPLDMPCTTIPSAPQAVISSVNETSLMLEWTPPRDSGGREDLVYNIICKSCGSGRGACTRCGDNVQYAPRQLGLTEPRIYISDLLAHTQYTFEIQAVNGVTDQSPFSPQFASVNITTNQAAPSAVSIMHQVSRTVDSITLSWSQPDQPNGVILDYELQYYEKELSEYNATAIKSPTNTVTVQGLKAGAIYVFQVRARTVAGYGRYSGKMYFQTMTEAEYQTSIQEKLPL
Experiment: Selectivity ELISA of humanized antibodies for human Eph receptor
Format: binding
Conditions: coated protein 1 nM
hEphB2-SEAP-: absorbance at 450 nm, percentage with respect to hEphA4-SEAP-His as 100% reference
Measurement kind: hEphB2-SEAP-: absorbance at 450 nm, percentage with respect to hEphA4-SEAP-His as 100% (%)

[
  {
    "Molecule": "153 (antibody, V domains shown, synthetic humanized antibody heavy chain variable region sequence; synthetic humanized antibody light chain variable region sequence) VH: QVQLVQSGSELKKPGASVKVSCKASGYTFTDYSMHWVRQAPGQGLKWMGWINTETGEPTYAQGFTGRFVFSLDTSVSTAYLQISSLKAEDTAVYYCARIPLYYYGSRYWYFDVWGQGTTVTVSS VL: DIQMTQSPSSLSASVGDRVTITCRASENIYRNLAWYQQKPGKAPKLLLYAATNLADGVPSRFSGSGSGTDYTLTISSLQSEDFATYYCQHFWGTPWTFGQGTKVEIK",
    "Unit string": "%",
    "Numeric value": 5.9
  },
  {
    "Molecule": "76 (antibody, V domains shown, synthetic humanized antibody heavy chain variable region sequence; synthetic humanized antibody light chain variable region sequence) VH: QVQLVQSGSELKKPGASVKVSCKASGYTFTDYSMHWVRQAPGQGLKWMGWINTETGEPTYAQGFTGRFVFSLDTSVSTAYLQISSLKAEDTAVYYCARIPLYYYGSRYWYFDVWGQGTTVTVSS VL: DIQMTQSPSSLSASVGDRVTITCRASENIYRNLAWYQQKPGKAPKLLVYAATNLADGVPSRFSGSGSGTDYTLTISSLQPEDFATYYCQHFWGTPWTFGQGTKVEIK",
    "Unit string": "%",
    "Numeric value": 4.9
  },
  {
    "Molecule": "77 (antibody, V domains shown, synthetic humanized antibody heavy chain variable region sequence; synthetic humanized antibody light chain variable region sequence) VH: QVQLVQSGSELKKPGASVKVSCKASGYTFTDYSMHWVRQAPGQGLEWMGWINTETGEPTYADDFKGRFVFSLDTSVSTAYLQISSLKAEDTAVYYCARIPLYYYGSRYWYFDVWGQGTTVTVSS VL: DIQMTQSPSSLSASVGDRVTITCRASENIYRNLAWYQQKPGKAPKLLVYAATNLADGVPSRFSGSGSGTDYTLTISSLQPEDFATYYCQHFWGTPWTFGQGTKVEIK",
    "Unit string": "%",
    "Numeric value": 4.5
  },
  {
    "Molecule": "136 (antibody, V domains shown, synthetic humanized antibody heavy chain variable region sequence; synthetic humanized antibody light chain variable region sequence) VH: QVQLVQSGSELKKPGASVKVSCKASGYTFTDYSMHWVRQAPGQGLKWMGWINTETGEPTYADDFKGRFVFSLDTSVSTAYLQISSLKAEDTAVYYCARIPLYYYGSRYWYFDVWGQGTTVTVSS VL: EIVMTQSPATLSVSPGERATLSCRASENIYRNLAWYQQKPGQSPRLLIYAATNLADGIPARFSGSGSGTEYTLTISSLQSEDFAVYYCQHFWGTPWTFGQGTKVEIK",
    "Unit string": "%",
    "Numeric value": 5.3
  }
]
